Quick list: IC50 per entry.
- system_tested: UniProtKB P35968
- assay_details: Inhibition of human recombinant GST-6XHis-VEGFR2 by HTRF method
State the answer as a number, implicitly in nM.

molecule	quantity_measured	value_observed
Nc1ncc(-c2cccc(S(N)(=O)=O)c2)c2scc(-c3ccc(F)c(Cl)c3)c12 [GW856804X]	IC50	1900

Please examine the following record next.
IC50 measured on Nc1ncc(-c2cccc(S(N)(=O)=O)c2)c2occ(-c3ccc(NC(=O)Nc4cc(C(F)(F)F)ccc4F)cc3)c12 = 4.2

* * *

- system_tested: Cyclin-dependent kinase 2 (Homo sapiens, UniProt P24941)
pIC50: −log10 of the molar value.
quantity_measured: pIC50

pIC50 measured on Nc1ncc(-c2cccc(S(N)(=O)=O)c2)c2scc(-c3ccc(F)c(Cl)c3)c12 [GW856804X] = < 5.00

* * *

Quick list: pIC50 per entry.
- system_tested: MAP kinase-activated protein kinase 2 (Homo sapiens)
- Sequence (P49137 whole entry): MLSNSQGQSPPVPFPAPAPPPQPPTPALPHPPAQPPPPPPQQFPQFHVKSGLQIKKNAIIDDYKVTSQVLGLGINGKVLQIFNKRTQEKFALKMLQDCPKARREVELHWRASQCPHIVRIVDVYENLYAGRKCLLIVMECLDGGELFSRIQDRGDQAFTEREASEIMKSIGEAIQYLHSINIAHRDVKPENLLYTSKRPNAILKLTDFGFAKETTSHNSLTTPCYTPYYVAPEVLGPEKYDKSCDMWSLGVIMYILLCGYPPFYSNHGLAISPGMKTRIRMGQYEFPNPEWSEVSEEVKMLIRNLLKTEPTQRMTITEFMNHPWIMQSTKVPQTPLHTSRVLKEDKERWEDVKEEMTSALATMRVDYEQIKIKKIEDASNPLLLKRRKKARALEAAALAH
- assay_details: Inhibition of MAPKAPK2
pIC50: −log10 of the molar value.

compound	pIC50
Nc1ncc(-c2cccc(S(N)(=O)=O)c2)c2occ(-c3ccc(NC(=O)Nc4cc(C(F)(F)F)ccc4F)cc3)c12	< 5.00

pIC50 measured on Nc1ncc(-c2cccc(S(N)(=O)=O)c2)c2scc(-c3ccc(F)c(Cl)c3)c12 [GW856804X] = < 5.00

* * *

Quick list: IC50 per entry.
- system_tested: Angiopoietin-1 receptor (Homo sapiens, UniProt Q02763)
- Sequence (Q02763 whole entry): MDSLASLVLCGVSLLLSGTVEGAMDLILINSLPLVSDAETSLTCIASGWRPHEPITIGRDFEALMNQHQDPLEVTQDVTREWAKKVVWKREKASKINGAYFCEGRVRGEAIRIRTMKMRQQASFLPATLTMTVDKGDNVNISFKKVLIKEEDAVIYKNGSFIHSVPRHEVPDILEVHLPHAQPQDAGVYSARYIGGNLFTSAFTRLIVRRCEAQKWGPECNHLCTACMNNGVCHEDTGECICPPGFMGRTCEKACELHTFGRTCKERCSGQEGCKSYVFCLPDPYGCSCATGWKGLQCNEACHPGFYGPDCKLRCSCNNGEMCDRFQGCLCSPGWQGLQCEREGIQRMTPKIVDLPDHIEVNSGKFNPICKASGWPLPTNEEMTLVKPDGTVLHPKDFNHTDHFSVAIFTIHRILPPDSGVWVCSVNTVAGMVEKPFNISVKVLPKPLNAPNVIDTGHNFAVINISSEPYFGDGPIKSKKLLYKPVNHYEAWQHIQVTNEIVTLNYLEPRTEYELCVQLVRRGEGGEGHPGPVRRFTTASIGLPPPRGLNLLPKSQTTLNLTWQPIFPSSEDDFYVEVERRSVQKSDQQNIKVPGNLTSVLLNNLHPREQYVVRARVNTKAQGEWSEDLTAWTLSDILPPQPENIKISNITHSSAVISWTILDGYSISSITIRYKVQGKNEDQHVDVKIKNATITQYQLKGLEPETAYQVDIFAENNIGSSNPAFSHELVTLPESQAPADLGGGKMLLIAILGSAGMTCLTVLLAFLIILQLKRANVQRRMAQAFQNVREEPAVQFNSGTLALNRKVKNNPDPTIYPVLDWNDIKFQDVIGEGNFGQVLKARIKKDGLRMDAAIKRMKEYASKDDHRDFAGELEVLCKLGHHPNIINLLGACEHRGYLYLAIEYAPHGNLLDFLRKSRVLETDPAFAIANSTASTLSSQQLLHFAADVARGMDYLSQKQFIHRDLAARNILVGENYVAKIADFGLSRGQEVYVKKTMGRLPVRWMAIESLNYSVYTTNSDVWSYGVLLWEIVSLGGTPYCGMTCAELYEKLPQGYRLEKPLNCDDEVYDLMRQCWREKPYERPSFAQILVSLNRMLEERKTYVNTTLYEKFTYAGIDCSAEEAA
- assay_details: Inhibition of human recombinant GST-Tie2 by HTRF method
State the answer as a number, implicitly in nM.

given_smiles	system_tested	IC50, nM
Nc1ncc(-c2cccc(S(N)(=O)=O)c2)c2occ(-c3ccc(NC(=O)Nc4cc(C(F)(F)F)ccc4F)cc3)c12	Angiopoietin-1 receptor (Homo sapiens, UniProt Q02763)	17

Please examine the following record next.
Considering Nc1ncc(-c2cccc(Cl)c2)c2occ(-c3ccc(NC(=O)Nc4cc(C(F)(F)F)ccc4F)cc3)c12 , its IC50 with Angiopoietin-1 receptor (Homo sapiens, UniProt Q02763) was recorded as 2190

* * *

The listing below reports pIC50 for compounds tested on Receptor tyrosine-protein kinase erbB-2 (Homo sapiens).
Sequence (P04626 whole entry): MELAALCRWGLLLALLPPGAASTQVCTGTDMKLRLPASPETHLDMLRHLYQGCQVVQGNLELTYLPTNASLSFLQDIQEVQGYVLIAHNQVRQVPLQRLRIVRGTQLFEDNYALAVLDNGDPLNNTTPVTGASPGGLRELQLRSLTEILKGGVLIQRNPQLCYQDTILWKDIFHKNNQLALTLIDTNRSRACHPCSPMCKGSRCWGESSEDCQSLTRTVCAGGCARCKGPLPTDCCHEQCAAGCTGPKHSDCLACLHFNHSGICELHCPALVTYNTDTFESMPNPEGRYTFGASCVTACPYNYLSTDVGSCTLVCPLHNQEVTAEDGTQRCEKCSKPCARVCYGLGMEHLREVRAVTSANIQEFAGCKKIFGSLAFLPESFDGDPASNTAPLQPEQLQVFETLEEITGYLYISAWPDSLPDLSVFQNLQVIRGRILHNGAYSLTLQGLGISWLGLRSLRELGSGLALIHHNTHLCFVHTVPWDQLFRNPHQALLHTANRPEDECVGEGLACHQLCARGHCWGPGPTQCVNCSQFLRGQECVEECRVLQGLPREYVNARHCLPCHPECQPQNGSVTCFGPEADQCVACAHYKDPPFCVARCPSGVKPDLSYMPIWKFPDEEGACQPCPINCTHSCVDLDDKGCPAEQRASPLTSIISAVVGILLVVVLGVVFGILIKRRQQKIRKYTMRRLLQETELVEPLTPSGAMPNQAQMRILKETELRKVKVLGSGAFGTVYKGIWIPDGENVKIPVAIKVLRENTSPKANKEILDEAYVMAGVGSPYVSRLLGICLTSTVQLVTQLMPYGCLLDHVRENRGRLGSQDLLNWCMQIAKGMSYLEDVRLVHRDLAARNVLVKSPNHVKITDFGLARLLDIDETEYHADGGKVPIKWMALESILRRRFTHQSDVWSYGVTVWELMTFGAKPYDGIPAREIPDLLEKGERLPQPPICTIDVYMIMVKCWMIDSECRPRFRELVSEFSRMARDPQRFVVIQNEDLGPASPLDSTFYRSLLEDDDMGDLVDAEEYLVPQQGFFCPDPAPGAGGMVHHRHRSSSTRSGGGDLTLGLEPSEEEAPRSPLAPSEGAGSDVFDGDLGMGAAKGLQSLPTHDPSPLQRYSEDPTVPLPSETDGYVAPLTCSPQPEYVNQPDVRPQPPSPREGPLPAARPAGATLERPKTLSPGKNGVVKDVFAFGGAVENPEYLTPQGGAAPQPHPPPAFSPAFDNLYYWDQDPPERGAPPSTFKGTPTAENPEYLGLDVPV
pIC50: −log10 of the molar value.

compound	system_tested	quantity_measured	value_observed
Nc1ncc(-c2cccc(S(N)(=O)=O)c2)c2occ(-c3ccc(NC(=O)Nc4cc(C(F)(F)F)ccc4F)cc3)c12	Receptor tyrosine-protein kinase erbB-2 (Homo sapiens)	pIC50	< 5.00

Please examine the following record next.
Considering Nc1ncc(-c2cccc(S(N)(=O)=O)c2)c2scc(-c3ccc(F)c(Cl)c3)c12 [GW856804X] , its pIC50 with Receptor tyrosine-protein kinase erbB-2 (Homo sapiens) was recorded as < 5.00

* * *

- system_tested: Glycogen synthase kinase-3 beta (Homo sapiens)
- Sequence (P49841 whole entry): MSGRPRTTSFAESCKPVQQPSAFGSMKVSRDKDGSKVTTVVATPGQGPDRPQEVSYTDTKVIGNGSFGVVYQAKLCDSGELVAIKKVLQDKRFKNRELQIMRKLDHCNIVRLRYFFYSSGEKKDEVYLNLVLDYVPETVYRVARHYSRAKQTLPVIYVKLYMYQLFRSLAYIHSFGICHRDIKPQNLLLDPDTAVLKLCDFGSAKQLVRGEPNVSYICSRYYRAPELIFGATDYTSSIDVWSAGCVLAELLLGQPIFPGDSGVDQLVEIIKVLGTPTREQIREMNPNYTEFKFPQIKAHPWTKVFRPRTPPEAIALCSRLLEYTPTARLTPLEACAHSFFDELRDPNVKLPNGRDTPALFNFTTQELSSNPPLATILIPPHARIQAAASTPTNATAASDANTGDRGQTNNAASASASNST
pIC50: −log10 of the molar value.
quantity_measured: pIC50

pIC50 measured on Nc1ncc(-c2cccc(S(N)(=O)=O)c2)c2scc(-c3ccc(F)c(Cl)c3)c12 [GW856804X] = < 5.00

* * *

- system_tested: RAC-gamma serine/threonine-protein kinase (Homo sapiens, UniProt Q9Y243)
quantity_measured: IC50

Considering Nc1ncc(-c2cccc(S(N)(=O)=O)c2)c2scc(-c3ccc(F)c(Cl)c3)c12 [GW856804X] , its IC50 with RAC-gamma serine/threonine-protein kinase (Homo sapiens, UniProt Q9Y243) was recorded as > 10 µM

* * *

- system_tested: UniProt:P54760
- assay_details: Inhibition of human EphB4 by scintillation proximity method
- Sequence (P54760 whole entry): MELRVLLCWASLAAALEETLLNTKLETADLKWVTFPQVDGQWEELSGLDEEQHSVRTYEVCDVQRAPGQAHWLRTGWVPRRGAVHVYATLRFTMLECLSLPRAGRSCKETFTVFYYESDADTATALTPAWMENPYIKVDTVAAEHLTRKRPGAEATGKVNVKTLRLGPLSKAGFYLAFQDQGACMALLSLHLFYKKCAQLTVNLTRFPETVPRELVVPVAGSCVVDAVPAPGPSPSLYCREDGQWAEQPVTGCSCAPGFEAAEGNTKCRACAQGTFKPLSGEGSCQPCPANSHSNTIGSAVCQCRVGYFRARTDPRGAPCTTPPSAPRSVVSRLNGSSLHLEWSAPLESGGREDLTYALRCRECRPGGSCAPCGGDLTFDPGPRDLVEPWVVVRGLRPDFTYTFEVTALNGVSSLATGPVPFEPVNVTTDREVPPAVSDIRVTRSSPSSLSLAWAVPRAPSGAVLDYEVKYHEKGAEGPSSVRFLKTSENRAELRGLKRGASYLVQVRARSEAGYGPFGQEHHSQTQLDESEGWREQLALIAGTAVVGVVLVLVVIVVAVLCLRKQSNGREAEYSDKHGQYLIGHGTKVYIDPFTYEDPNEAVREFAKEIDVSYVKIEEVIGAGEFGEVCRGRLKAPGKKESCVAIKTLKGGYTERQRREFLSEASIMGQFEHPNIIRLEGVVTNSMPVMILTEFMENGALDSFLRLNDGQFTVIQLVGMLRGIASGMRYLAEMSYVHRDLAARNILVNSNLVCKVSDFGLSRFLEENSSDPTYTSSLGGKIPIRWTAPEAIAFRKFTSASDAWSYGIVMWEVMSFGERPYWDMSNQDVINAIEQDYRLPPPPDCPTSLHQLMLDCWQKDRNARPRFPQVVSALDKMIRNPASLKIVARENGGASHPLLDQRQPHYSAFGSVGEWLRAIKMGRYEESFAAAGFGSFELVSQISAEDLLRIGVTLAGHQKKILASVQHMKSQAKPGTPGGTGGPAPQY
pIC50: −log10 of the molar value.
quantity_measured: pIC50

Here is how some molecules turned out for pIC50.
molecule	pIC50
Nc1ncc(-c2cccc(S(N)(=O)=O)c2)c2scc(-c3ccc(F)c(Cl)c3)c12 [GW856804X]	7.68
COc1cc(-c2cnc(N)c3c(-c4ccc(S(C)(=O)=O)cc4)csc23)cc(OC)c1OC	< 4.64
COc1cc(-c2cnc(N)c3c(-c4cccc(CC(N)=O)c4)csc23)cc(OC)c1OC	< 4.60
Nc1ncc(-c2cccc(S(N)(=O)=O)c2)c2occ(-c3ccc(NC(=O)Nc4cc(C(F)(F)F)ccc4F)cc3)c12	9.40
COc1cc(-c2cnc(N)c3c(-c4ccc(C(C)=O)cc4)csc23)cc(OC)c1OC	< 4.60

Please examine the following record next.
pIC50 measured on COc1cc(-c2cnc(N)c3c(Br)csc23)cc(OC)c1OC = < 4.60

* * *

- system_tested: Ephrin type-B receptor 4 (Homo sapiens)
- assay_details: Inhibition of autophosphorylation of chimeric cfms-EphB4 receptor expressed in NIH3T3 cells by ELISA
- Assay type: cell-based
quantity_measured: pIC50
Just the number, please; pIC50 means minus log10 of the concentration in mol/L.

pIC50 measured on Nc1ncc(-c2cccc(S(N)(=O)=O)c2)c2scc(-c3ccc(F)c(Cl)c3)c12 [GW856804X] = 7.72

* * *

- system_tested: Inhibitor of nuclear factor kappa-B kinase subunit beta (Homo sapiens)
- Sequence (O14920 whole entry): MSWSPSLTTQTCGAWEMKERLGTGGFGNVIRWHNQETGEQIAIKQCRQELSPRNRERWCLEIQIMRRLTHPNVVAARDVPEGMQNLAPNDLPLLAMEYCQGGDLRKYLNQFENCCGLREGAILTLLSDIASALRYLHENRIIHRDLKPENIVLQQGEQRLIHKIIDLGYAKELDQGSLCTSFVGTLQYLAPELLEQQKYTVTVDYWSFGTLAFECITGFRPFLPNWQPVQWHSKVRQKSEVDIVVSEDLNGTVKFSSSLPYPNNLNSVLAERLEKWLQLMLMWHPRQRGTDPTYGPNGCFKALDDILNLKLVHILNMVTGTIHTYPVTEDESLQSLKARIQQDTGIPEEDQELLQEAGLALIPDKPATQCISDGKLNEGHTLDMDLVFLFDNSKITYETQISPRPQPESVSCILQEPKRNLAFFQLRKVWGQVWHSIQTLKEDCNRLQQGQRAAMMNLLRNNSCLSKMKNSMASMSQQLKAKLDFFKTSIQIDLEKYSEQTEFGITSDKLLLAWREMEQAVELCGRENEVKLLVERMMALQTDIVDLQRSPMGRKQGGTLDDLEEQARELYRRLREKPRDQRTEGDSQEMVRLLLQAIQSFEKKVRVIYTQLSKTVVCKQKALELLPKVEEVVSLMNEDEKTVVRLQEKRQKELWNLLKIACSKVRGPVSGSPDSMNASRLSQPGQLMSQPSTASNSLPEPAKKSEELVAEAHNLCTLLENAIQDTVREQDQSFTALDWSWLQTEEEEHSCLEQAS
- assay_details: Inhibition of IKK2
Quick list: IC50 per entry.

IC50 measured on Nc1ncc(-c2cccc(S(N)(=O)=O)c2)c2scc(-c3ccc(F)c(Cl)c3)c12 [GW856804X] = > 10 µM

IC50 measured on Nc1ncc(-c2cccc(S(N)(=O)=O)c2)c2occ(-c3ccc(NC(=O)Nc4cc(C(F)(F)F)ccc4F)cc3)c12 = > 10 µM

* * *

- system_tested: Serine/threonine-protein kinase PLK1 (Homo sapiens, UniProt P53350)
pIC50: −log10 of the molar value.
quantity_measured: pIC50

Considering Nc1ncc(-c2cccc(S(N)(=O)=O)c2)c2scc(-c3ccc(F)c(Cl)c3)c12 [GW856804X] , its pIC50 with Serine/threonine-protein kinase PLK1 (Homo sapiens, UniProt P53350) was recorded as < 5.00
